Source: ChEMBL document CHEMBL2057096

# System: Mus musculus
# Assay method text: Antiinflammatory activity in C57BL/6 mouse EAE model assessed as decrease in clinical symptoms at 1 mg/kg, po administered qd after 10 days post immunization
# Format: functional, organism-based
# Set-up: dose 1 mg/kg
The source made the active and inactive calls. No cut-off for these calls is given here.
Give your call using only these classes: active, inactive

Below are worked cases with known answers.
Smi: CCCCCCCCc1ccc(CCC(N)(CO)CO)cc1
Test target: Mus musculus
Cat: active

Smi: CCc1c(CCCC(=O)O)cccc1-c1nnc(-c2ccc(OC(C)C)c(C#N)c2)s1
Test target: Mus musculus
Cat: inactive

Smi: CCc1c(CCCC(=O)O)cccc1-c1cnc(-c2ccc(OC(C)C)c(C#N)c2)nc1
Test target: Mus musculus
Cat: active

Smi: CCc1c(CCCC(=O)O)cccc1-c1cnc(-c2ccc(OC(C)C)c(C#N)c2)s1
Test target: Mus musculus
Cat: inactive

Now let's try a different one.
Q) For CCc1c(CCCC(=O)O)cccc1-c1nsc(-c2ccc(OC(C)C)c(C#N)c2)n1 , what call appears in the results of this test?
A) active
